All values here come from patent US5750754A.

- target entity: purified human platelet fibrinogen receptor (GPIIb/IIIa) (Homo sapiens, UniProt P05106+P08514)
- Construct: is isolated from human platelet lysates; from tissue
- Sequence (P08514 32-887 limits assumed): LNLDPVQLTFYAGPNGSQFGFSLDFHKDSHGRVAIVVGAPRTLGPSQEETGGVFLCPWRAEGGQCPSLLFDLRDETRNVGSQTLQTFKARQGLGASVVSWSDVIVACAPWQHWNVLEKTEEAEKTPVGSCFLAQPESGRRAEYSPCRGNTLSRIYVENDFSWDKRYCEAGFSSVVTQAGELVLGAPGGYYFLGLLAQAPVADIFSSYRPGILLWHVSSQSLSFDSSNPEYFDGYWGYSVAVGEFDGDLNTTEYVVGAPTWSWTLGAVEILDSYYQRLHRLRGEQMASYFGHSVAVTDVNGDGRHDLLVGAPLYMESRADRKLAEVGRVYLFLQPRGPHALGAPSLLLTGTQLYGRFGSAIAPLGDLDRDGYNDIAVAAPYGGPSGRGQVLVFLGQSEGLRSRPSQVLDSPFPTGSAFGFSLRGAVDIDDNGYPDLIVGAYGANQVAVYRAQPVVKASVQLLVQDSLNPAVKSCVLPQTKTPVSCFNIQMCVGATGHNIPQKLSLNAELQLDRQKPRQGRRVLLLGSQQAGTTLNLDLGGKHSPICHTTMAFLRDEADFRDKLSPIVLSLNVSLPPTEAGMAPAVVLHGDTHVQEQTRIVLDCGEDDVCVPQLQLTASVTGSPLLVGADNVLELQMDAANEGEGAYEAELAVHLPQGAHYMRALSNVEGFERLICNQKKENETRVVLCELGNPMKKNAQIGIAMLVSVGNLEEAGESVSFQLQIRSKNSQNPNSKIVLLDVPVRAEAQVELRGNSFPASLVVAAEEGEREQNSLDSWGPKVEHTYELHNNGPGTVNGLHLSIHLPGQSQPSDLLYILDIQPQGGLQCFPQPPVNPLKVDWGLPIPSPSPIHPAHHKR
- Sequence (P08514 891-1039 limits assumed): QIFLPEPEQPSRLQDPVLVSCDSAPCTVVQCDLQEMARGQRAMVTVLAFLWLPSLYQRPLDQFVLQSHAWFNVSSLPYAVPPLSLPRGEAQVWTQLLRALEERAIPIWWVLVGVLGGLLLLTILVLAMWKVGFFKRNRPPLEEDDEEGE
- Sequence (P05106 27-788): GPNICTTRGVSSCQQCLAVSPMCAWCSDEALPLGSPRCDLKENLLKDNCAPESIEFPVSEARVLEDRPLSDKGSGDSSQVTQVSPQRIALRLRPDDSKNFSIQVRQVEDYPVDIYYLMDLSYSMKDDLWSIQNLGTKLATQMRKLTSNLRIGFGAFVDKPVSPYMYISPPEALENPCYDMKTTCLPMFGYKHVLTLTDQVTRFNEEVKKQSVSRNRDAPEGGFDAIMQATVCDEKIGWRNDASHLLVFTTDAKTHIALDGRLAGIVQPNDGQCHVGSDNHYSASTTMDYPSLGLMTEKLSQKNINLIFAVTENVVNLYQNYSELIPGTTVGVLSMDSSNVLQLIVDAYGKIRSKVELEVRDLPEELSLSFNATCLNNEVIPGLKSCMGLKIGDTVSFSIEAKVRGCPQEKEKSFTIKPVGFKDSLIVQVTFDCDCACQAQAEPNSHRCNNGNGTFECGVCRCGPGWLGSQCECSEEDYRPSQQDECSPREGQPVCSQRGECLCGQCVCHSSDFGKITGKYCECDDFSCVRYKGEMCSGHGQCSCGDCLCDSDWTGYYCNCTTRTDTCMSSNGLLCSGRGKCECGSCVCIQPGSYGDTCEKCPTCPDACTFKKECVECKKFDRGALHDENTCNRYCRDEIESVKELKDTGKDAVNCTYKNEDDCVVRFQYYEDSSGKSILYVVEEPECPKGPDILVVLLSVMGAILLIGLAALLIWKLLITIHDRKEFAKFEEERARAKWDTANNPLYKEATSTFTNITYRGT
- experimental details: Test (b): GPIIb/IIIa ELISA, inhibition of biotinylated fibrinogen binding
- experimental parameters: purified human platelet GPIIb/IIIa, ELISA; read-out: Test (b): pIC50 (-log(IC50)), 50% inhibition of biotinylated fibrinogen binding to GPIIb/IIIa (converted)
Structures can show the parent of a compound that is named as a salt.
measured attribute: IC50 (nM)
The reply should contain only the number, in nM.

Study these solved cases before continuing.
COC(=O)COc1ccc(C(=O)CN2CCN(c3ccnc4c3CCCC4)CC2)cc1 : 794
COC(=O)COc1ccc(C(=O)CN2CCN(c3ccncc3)CC2=O)cc1 : 200
COC(=O)COc1ccc(C(=O)CN2CCN(c3ccncc3)CC2)c(C)c1 : 398
CNC(=O)COc1ccc(C(=O)CN2CCN(c3ccncc3)CC2)cc1 : 31600
C=CC(COc1ccc(N2CCN(c3ccncc3)CC2)cc1)CC(=O)O (racemic) [Example 204, sodium salt] : 1.26

Now look at this one.
Please supply the value of reported IC50 for the item O=C(O)COC1CCCN(C(=O)CN2CCN(c3ccncc3)CC2)C1 (centres unmarked)
20000

* * *

- target entity: human, citrated, platelet-rich plasma (Homo sapiens, UniProt P05106+P08514)
- Construct: aggregating human, citrated, platelet-rich plasma; endogenous in cells; host or cells: human platelets in citrated platelet-rich plasma
- Sequence (P08514 32-887 limits assumed): as the sequence (P08514 32-887 limits assumed) above
- Sequence (P08514 891-1039 limits assumed): as the sequence (P08514 891-1039 limits assumed) above
- Sequence (P05106 27-788): as the sequence (P05106 27-788) above
- experimental details: Test (a): inhibition of ADP stimulated platelet aggregation (Born)
- Type: cell-based
- experimental parameters: ADP induced aggregation of human platelet-rich plasma
Structures can show the parent of a compound that is named as a salt.
measured attribute: Test (a): pA2 value indicating potency of platelet aggregation inhibition
Give the figure only, with no unit attached.

Report the value of Test (a): pA2 value indicating potency of platelet aggregation inhibition obtained on human, citrated, platelet-rich plasma (Homo sapiens, UniProt P05106+P08514) for O=C(O)CCC(CC1CCN(C(=O)CN2CCN(c3ccncc3)CC2)CC1)C(=O)O (centres unmarked) .
5.2

With human, citrated, platelet-rich plasma (Homo sapiens, UniProt P05106+P08514) as the test system, provide measured Test (a): pA2 value indicating potency of platelet aggregation inhibition for this compound: O=C(O)COc1ccc(CCN2CCN(c3ccncc3)CC2)cc1 [Example 148, dihydrochloride]
7.3

Give Test (a): pA2 value indicating potency of platelet aggregation inhibition for O=C(O)CCCCCOc1ccc(Nc2ccncc2)cc1 [Example 188, hydrochloride] tested on human, citrated, platelet-rich plasma (Homo sapiens, UniProt P05106+P08514).
6.0

Please look at CCCCS(=O)(=O)NC(CC(=O)O)c1ccc(OCC2CCN(c3ccncc3)CC2)cc1 (centres unmarked) and tell me its recorded Test (a): pA2 value indicating potency of platelet aggregation inhibition on human, citrated, platelet-rich plasma (Homo sapiens, UniProt P05106+P08514).
7.6

Retrieve Test (a): pA2 value indicating potency of platelet aggregation inhibition on human, citrated, platelet-rich plasma (Homo sapiens, UniProt P05106+P08514); query CC(COc1ccc(N2CCN(c3ccncc3)CC2)cc1)CC(=O)O (racemic)
7.2

* * *

- target entity: purified human platelet fibrinogen receptor (GPIIb/IIIa) (Homo sapiens, UniProt P05106+P08514)
- Construct: is isolated from human platelet lysates; from tissue
- experimental details: Test (b): GPIIb/IIIa ELISA, inhibition of biotinylated fibrinogen binding
- experimental parameters: purified human platelet GPIIb/IIIa, ELISA; read-out: Test (b): pIC50 (-log(IC50)), 50% inhibition of biotinylated fibrinogen binding to GPIIb/IIIa (converted)
Where a name gives a salt, the structure may show the parent alone.
In plain terms, low IC50, meaning strictly below 200 nM, gives true (1), and everything else gives false (0).

Known results for compounds:
O=C(O)COc1ccc(C(=O)CN2CCN(c3ccnc4ccccc34)CC2)cc1 [Example 44, trifluoroacetate salt] : true (1)
CCOC(=O)CCCCOc1cccc(N2CCN(c3ccncc3)CC2)c1 [Example 228] : false (0)
Cc1cc(OCC(=O)O)ccc1C(=O)CN1CCN(c2ccncc2)CC1 [Example 125, dihydrochloride] : true (1)
CCCCS(=O)(=O)Nc1ccc(C(=O)CN2CCN(c3ccncc3)CC2)cc1 [Example 20] : false (0)
COC(=O)COc1ccc(OC2CCN(c3ccncc3)CC2)cc1 [Example 155] : false (0)

IC50 under 200 nM? Item: Cc1ccc(S(=O)(=O)NCc2ccc(CCN3CCN(c4ccncc4)CC3)cc2)cc1 [Example 186]
false (0)

IC50 under 200 nM? Item: O=C(O)COc1cccc(C(=O)CN2CCN(c3ccncc3)CC2)c1 [Example 126, dihydrochloride]
false (0)

Quick check: IC50 of O=C(COc1ccc(C(=O)CN2CCN(c3ccncc3)CC2)cc1)NCc1ccccc1 [Example 145] under 200 nM?
false (0)

Item CCCCS(=O)(=O)N[C@@H](Cc1ccc(OCCC2CCN(c3ccncc3)CC2)cc1)C(=O)OC [Example 35] : IC50 beneath 200 nM, strictly?
true (1)
